Tested on: SW-620
Method notes: NCI tumour cell line growth inhibition, 48 h
Activity calls are given as the source filed them. Rule as the data show it: active = GI50 up to about 1.1 µM and inactive = higher.
Classes to choose from: active, inactive

Input: Test call, this molecule: CC(=O)C1C(=O)C(=O)N(c2ccccc2C(C)C)C1=O (configuration not stated)
Output: inactive

Input: Test call, this molecule: COc1ccc2c3c([nH]c2c1CC=C(C)C)C(=O)C=C(C)C3=O
Output: inactive

Input: Test call, this molecule: Cc1c2ccccc2cc2cccc[n+]12
Output: inactive

Input: Test call, this molecule: Cc1csc2nc(-c3ccc([N+](=O)[O-])cc3)c(/C=N/N=C(N)N)n12
Output: inactive

Input: Test call, this molecule: COc1ccc2c(c1)/C(=C/CCN(C)C)c1ccccc1S2
Output: inactive

Input: Test call, this molecule: COC(=O)c1ccc2c(c1)CCN2C(=O)c1cc2c(cc1Br)OCO2
Output: active

Input: Test call, this molecule: CCOC(=O)/C(=C/c1cccc(Cl)c1)N(CC)CC
Output: inactive

Reference source for all entries: ChEMBL document CHEMBL1201862
